B1: Mineralocorticoid receptor, residues 600 to 675; numbered along this chain, P08235 (parent)
chain: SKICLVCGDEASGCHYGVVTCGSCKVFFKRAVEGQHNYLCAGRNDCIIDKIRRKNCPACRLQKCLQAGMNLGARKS

Variants of: B1
Test: abundance fitness (aPCA) (normalised: wild type 0, dead -1); higher = more abundant; growth selection in yeast, the domain comes from the species named
Details: Homo sapiens
Property: abundance fitness
Simply state the number, no unit and no words.

Field: example entries. Status: answers known.
Variant string | Val
K54S | 0.013
N70F | -0.07
G22H | -0.109

Give the measured abundance fitness of "F27Q" .
-0.847

Here is the next variant: "G42Q"
0.032

Again, but for "N70W"
-0.087

One more variant: "Q66G"
-0.044

What would you report for "I47K" ?
0.018

Same lookup for "G17M" , please.
-0.055

Thanks! And "A41N" ?
-0.079

Lookup "D9G"
-0.053
